Tested on: tet operator sequence
METHOD_SUMMARY: β-galactosidase activity of a tetracycline-regulated promoter in transformed E. coli with revTetR, in the presence and absence of anhydrotetracycline (atc)
Assay type: cell-based, Escherichia coli
TEST_PARAMETERS: RevTetR isolate cultured in the presence of anhydrotetracycline (ATC)
ENDPOINT_NAME: β-Galactosidase Activity, Cultured With ATC

- MOLECULE: "TetRrev6-23: revTetR(BD) D95E A97E (protein, Modified tetracycline repressor, revTetR(BD) D95E A97E) MSRLDKSKVINSALELLNEVGIEGLTTRKLAQKLGVEQPTLYWHVKNKRALLDALAVEILARHHDYSLPAAGESWQSFLRNNAMSFRRALLRYREGEKVHLGTRPDEKQYDTVETQLRFMTENGFSLRDGLYAISAVSHFTLGAVLEQQEHTAALTDRPAAPDENLPPLLREALQIMDSDDGEQAFLHGLESLIRGFEVQLTALLQIV"
  TEST_VALUE: 49

The measured values listed here are drawn from patent US20030186281A1.
